Tested on: velvetleaf (Abutilon theophrasti)
Assay: Test B pre-/postemergence plant response
Format: in vivo
Conditions: Postemergence, 62 g ai/ha; scale 0 (no effect) to 100 (complete control); 13 to 15 days
# Plant response rating, Velvetleaf >= 80 gives satisfied, anything below gives not satisfied

Please review the entries below; each comes with its answer.
* Cc1cc(F)ccc1-n1c(-c2ccccc2)ncc(C(=O)C2=C(O)CCCC2=O)c1=O [Compound 48] | satisfied
* Cc1cccc(-n2c(-c3ccccc3)ncc(C(=O)C3=C(O)CCCC3=O)c2=O)c1C [Compound 27] | not satisfied
* O=C1CCCC(O)=C1C(=O)c1cnc(-c2ccccc2)n(-c2ccc(F)cc2)c1=O [Compound 24] | satisfied

Exam item: Could you tell me if the measured Plant response rating, Velvetleaf of Cc1ccc(C)c(-n2c(-c3ccccc3)ncc(C(=O)C3=C(O)CCCC3=O)c2=O)c1 [Compound 29] reaches 80 or more?
Marked response: not satisfied

====

System: corn (Zea mays)
Assay: Test A pre-/postemergence plant response
Format: in vivo
Conditions: Preemergence, 500 g ai/ha; visual injury, 0 to 100 scale (0 no effect, 100 complete control), approx. ten days
From the text: Seeds of barnyardgrass (Echinochloa crus-galli), large crabgrass (Digitaria sanguinalis), giant foxtail (Setaria faberii), morningglory (Ipomoea spp.), pigweed (Amaranthus retroflexus), velvetleaf (Abutilon theophrasti), wheat (Triticum aestivum) and corn (Zea mays) were planted into a blend of loam soil and sand and treated preemergence with a directed soil spray using test chemicals formulated in a non-phytotoxic solvent mixture which included a surfactant. […]
// reported Plant response rating, Corn per item
Number only, no unit.

The examples below pair each entry with its known result.
* CCCn1c(-c2ccccc2)ncc(C(=O)C2=C(O)CCCC2=O)c1=O [Compound 50] | 0
* Cc1cccc(-n2c(-c3ccccc3)ncc(C(=O)C3=C(O)CCCC3=O)c2=O)c1 [Compound 18] | 20
* Cc1ccc(F)cc1-n1c(-c2cccc(Br)c2)ncc(C(=O)C2=C(O)CCCC2=O)c1=O [Compound 154] | 0
* CCn1c(-c2cccc(F)c2)ncc(C(=O)C2=C(O)CCCC2=O)c1=O [Compound 124] | 0
* CCCCc1ncc(C(=O)C2=C(O)CCCC2=O)c(=O)n1-c1ccccc1C [Compound 62] | 20
* O=C1CCCC([O-])=C1C(=O)c1cnc(-c2ccccc2)n(-c2ccccc2)c1=O.[K+] [Compound 14] | 0
* O=C1CCCC(O)=C1C(=O)c1cnc(-c2cccs2)n(-c2ccccc2)c1=O [Compound 66] | 0

For the next question, use this compound.
Exam item: Could you tell me which Plant response rating, Corn is on file for O=C1CCCC(O)=C1C(=O)c1cnc(-c2ccccc2)n(C2CC2)c1=O [Compound 90] ?
Marked response: 0

====

// reported Plant response rating, Barnyardgrass per item
System: barnyardgrass (Echinochloa crus-galli)
Experiment: Test A pre-/postemergence plant response
Type: in vivo
Conditions: Preemergence, 500 g ai/ha; visual injury, 0 to 100 scale (0 no effect, 100 complete control), approx. ten days
Number only, no unit.

- CCn1c(-c2cc(F)cc(F)c2)ncc(C(=O)C2=C(O)CCCC2=O)c1=O: 100

Exam item: Could you tell me which Plant response rating, Barnyardgrass is on file for O=C1CCCC([O-])=C1C(=O)c1cnc(-c2ccccc2)n(-c2ccccc2)c1=O.[K+] ?
Marked response: 70

Exam item: Try the molecule COc1ccc(-n2c(-c3cccc(Cl)c3)ncc(C(=O)C3=C(O)CCCC3=O)c2=O)cc1
Marked response: 100

Exam item: Try the molecule Cc1ccc(F)c(-n2c(-c3ccccc3)ncc(C(=O)C3=C(O)CCCC3=O)c2=O)c1
Marked response: 90

Exam item: Try the molecule COc1ccccc1-n1c(-c2ccccc2)ncc(C(=O)C2=C(O)CCCC2=O)c1=O
Marked response: 90

Exam item: Try the molecule CCn1c(-c2ccccc2)ncc(C(=O)C2=C(O)CCCC2=O)c1=O
Marked response: 60

Exam item: Try the molecule Cc1cccc(-n2c(-c3cccc(Cl)c3)ncc(C(=O)C3=C(O)CCCC3=O)c2=O)c1
Marked response: 80

Exam item: Try the molecule O=C1CCCC(O)=C1C(=O)c1cnc(-c2ccccc2)n(-c2ccc(F)cc2)c1=O
Marked response: 90

Exam item: Try the molecule COCCn1c(-c2cccs2)ncc(C(=O)C2=C(O)CCCC2=O)c1=O
Marked response: 90

Exam item: Try the molecule O=C1CCCC([O-])=C1C(=O)c1cnc(-c2ccccc2)n(-c2ccc(Cl)cc2)c1=O.[K+]
Marked response: 90

====

// reported Plant response rating, Ryegrass, Italian per item
Tested on: Italian ryegrass (Lolium multiflorum)
Experiment: Test B pre-/postemergence plant response
Type: in vivo
Conditions: 250 g ai/ha, Preemergence, 0 to 100 scale

* Cc1ccc(C)c(-n2c(-c3ccccc3)ncc(C(=O)C3=C(O)CCCC3=O)c2=O)c1 [Compound 29] | 40
* Cc1ccc(F)c(-n2c(-c3ccccc3)ncc(C(=O)C3=C(O)CCCC3=O)c2=O)c1 [Compound 51] | 5
* Cc1cccc(-n2c(-c3cccc(Cl)c3)ncc(C(=O)C3=C(O)CCCC3=O)c2=O)c1 [Compound 45] | 0

For the next question, use this molecule.
Exam item: Could you tell me which Plant response rating, Ryegrass, Italian is on file for CCn1c(-c2ccccc2)ncc(C(=O)C2=C(O)CCCC2=O)c1=O [Compound 49] ?
Marked response: 5

====

Test system: bermudagrass (Cynodon dactylon)
Experiment: Test D pre-/postemergence plant response
Assay type: in vivo
Conditions: Preemergence, 62 g ai/ha; scale 0 to 100
MEASUREMENT_KIND: Plant response rating, Bermudagrass

* O=C1CCCC(O)=C1C(=O)c1cnc(-c2ccccc2)n(C2CCCCC2)c1=O [Compound 128] | 65

Exam item: What reported Plant response rating, Bermudagrass corresponds to Cc1ccc(F)c(-n2c(-c3ccccc3)ncc(C(=O)C3=C(O)CCCC3=O)c2=O)c1 [Compound 51] on bermudagrass (Cynodon dactylon)?
Marked response: 0

Exam item: Try the molecule O=C1CCCC(O)=C1C(=O)c1cnc(C2CC2)n(-c2ccccc2)c1=O [Compound 87]
Marked response: 98

Exam item: Try the molecule Cc1ccc(Cl)cc1-n1c(-c2ccccc2)ncc(C(=O)C2=C(O)CCCC2=O)c1=O [Compound 52]
Marked response: 90

====

Test system: galium (catchweed bedstraw, Galium aparine)
Test: Test B pre-/postemergence plant response
Type: in vivo
Details: Preemergence, 31 g ai/ha; scale 0 to 100 (0 no effect, 100 complete control)
// reported Plant response rating, Galium per item
Number only, no unit.

The examples below pair each entry with its known result.
* Cc1ccc(F)c(-n2c(-c3ccccc3)ncc(C(=O)C3=C(O)CCCC3=O)c2=O)c1 | 0
* CCCn1c(-c2ccccc2)ncc(C(=O)C2=C(O)CCCC2=O)c1=O | 70
* COCCCn1c(-c2ccccc2)ncc(C(=O)C2=C(O)CCCC2=O)c1=O | 85
* O=C1CCCC(O)=C1C(=O)c1cnc(-c2ccccc2)n(-c2ccc(F)cc2)c1=O | 0
* CCCc1ncc(C(=O)C2=C(O)CCCC2=O)c(=O)n1-c1ccccc1 | 0

Exam item: What reported Plant response rating, Galium corresponds to CCCCc1ncc(C(=O)C2=C(O)CCCC2=O)c(=O)n1-c1ccccc1C on galium (catchweed bedstraw, Galium aparine)?
Marked response: 0

Exam item: Try the compound Cc1cccc(-n2c(-c3ccccc3)ncc(C(=O)C3=C(O)CCCC3=O)c2=O)c1F
Marked response: 0

====

Test system: woolly cupgrass (Eriochloa villosa)
Experiment: Test B pre-/postemergence plant response
Format: in vivo
Settings: Postemergence, 62 g ai/ha; scale 0 (no effect) to 100 (complete control); 13 to 15 days
MEASUREMENT_KIND: Plant response rating, Cupgrass, Woolly
Number only, no unit.

The examples below pair each entry with its known result.
• Cc1cccc(-n2c(-c3cccc(Cl)c3)ncc(C(=O)C3=C(O)CCCC3=O)c2=O)c1 = 75
• O=C1CCCC(O)=C1C(=O)c1cnc(-c2cccc(Cl)c2)n(-c2ccccc2)c1=O = 80

Exam item: Could you tell me which Plant response rating, Cupgrass, Woolly is on file for CCCn1c(-c2ccccc2)ncc(C(=O)C2=C(O)CCCC2=O)c1=O ?
Marked response: 75

Exam item: Try the compound O=C1CCCC(O)=C1C(=O)c1cnc(-c2ccccc2)n(-c2ccc(F)cc2)c1=O
Marked response: 80

====

// reported Plant response rating, Surinam Grass per item
Test system: Surinam grass (Brachiaria decumbens)
Experiment: Test B pre-/postemergence plant response
Format: in vivo
Settings: Preemergence, 62 g ai/ha; scale 0 to 100, 0 no effect, 100 complete control
Number only, no unit.

• CC(C)Cc1ncc(C(=O)C2=C(O)CCCC2=O)c(=O)n1-c1ccccc1 [Compound 68] = 50
• COCCCn1c(-c2cc(F)cc(F)c2)ncc(C(=O)C2=C(O)C3CCC(C3)C2=O)c1=O (stereo not shown) [Compound 244] = 100
• O=C1CCCC(O)=C1C(=O)c1cnc(-c2cccc(Br)c2)n(-c2ccccc2)c1=O [Compound 69] = 100

For the next question, use this compound.
Exam item: What reported Plant response rating, Surinam Grass corresponds to CCc1cccc(-n2c(-c3ccccc3)ncc(C(=O)C3=C(O)CCCC3=O)c2=O)c1 [Compound 220] on Surinam grass (Brachiaria decumbens)?
Marked response: 20
